- measurement.target: human CD28 (human, UniProt P10747 19-220)
- assay.text: cell-based or functional assay
measured.metric: MLR assay (EC50) (nM)

Use the examples below as a reference point.
1h-239-819 (other) VL: DIQMTQSPSSLSASVGDRVTITCRASQAIWPFLEWYQQKPGKAPKLLIYFTSRLQSGVPSRFSGSGSGTDFTLTISSLQPEDFATYYCLQNVTNPATFSQGTKVEIKR :: 11
1h-99-2116 (other) VH: EVQLLESGGGLVQPGGSLRLSCAASGFTFKDKNMSWVRQAPGKGLEWVSWIEASGVQTFYADSVKGRFTISRDNSKNTLYLQMNSLRAEDTAVYYCAKSPFGPLYGFDYRGQGTLVTVSS :: 4
1h-112 (other) VL: DIQMTQSPSSLSASVGDRVTITCRASQHINASLGWYQQKPGKAPRLLIYWASQLQSGVPSRFSGSGSGTDFTLTISSLQPEDFATYYCQQMVRTPFTFGQGTKVEIKR :: 850
1h-239-837 (other) VL: DIQMTQSPSSLSASVGDRVTITCRASQSIYPFLEWYQQKPGKAPKLLIYFTSRLASGVPSRFSGSGSGTDFTLTISSLQPEDFATYYCLQNVTNPATFSQGTKVEIKR :: 14

P: 1h-35-7 (other) VL: DIQMTQSPSSLSASVGDRVTITCRASQYIGSALGWYQQKPGKAPKLLIYRASNLQSGVPSRFSGSGYGTGFTLTISSLQPEDFATYYCQQLAIRPFTFGQGTKVEIKR
Q: 1h-239-828 (other) VL: DIQMTQSPSSLSASVGDRVTITCRASQSIYPFLEWYQQKPGKAPKLLIYFTSRLREGVPSRFSGSGSGTDFTLTISSLQPEDFATYYCLQNVTNPATFSQGTKVEIKR
q: Problem: Given the entries P and Q , determine which has the lower reported MLR assay (EC50). Give the label of your selection.
a: Q
(Q: 14 nM, P: 270 nM)

The values you see were collected from patent US20130109846A1.
